The following compounds are shown together with reported normalized growth values.
- test details: chemical genetic growth profiling, strain panel (AID 1159580);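 further: tested at 20 µM; growth read once vehicle control cultures reached saturation at 30 °C; 1 = growth at the plate median or of vehicle wells; lower values mean less growth of the strain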
- condition context: S. cerevisiae deletion strains, growth OD, locus YPL055C, strain LGE1, active compounds read low
About 2,000 (36%) of roughly 5,500 compounds were called active. Not shown: some 18% with an inconclusive outcome. Some of the results follow.
Form rule: numeric answer, no unit written next to it.

- compound: "CC(=O)OC1CCC2(C)C(=CC=C3C2CCC2(C)C3CCC2C(C)/C=C/C(C)C(C)C)C1(C)C (stereo unspecified)"
  readout type: "normalized growth"
  recorded measurement: 1.07
- compound: "COc1nc(C)nc(Cl)c1NC1=NCCN1"
  readout type: "normalized growth"
  recorded measurement: 0.998
- compound: "CO/N=C(\\C(=O)N[C@@H]1C(=O)N2C(C(=O)O)=C(CSc3nc(=O)c(O)nn3C)CS[C@H]12)c1csc(N)n1"
  readout type: "normalized growth"
  recorded measurement: 1.07

**Query** Sample `CO/N=C(\C(=O)N[C@@H]1C(=O)N2C(C(=O)O)=C(COC(C)=O)CS[C@H]12)c1csc(N)n1` — what was its normalized growth?
**Result** 1.01

**Query** Sample `CC(=O)Oc1c(C)cccc1C(=O)O` — what was its normalized growth?
**Result** 1.03

**Query** Sample C=C1CCC(OC(C)=O)/C(C)=C/C[C@@H]2[C@@H]1CC2(C)C (stereo partly specified) — what was its normalized growth?
**Result** 1.04

**Query** Sample C#CCCCCCCCCCCCC(O)CC(O)CO (stereo unspecified) — what was its normalized growth?
**Result** 0.994

---

- test details: chemical genetic growth profiling, strain panel (AID 1159580)
- condition context: S. cerevisiae deletion strains, growth OD, locus YGR135W, strain pre9
In all, about 5,500 compounds went through this assay and about 2,000 (36%) were called active. Inconclusive results (about 18%) are left out. Rule as the data show it: active = normalized growth mostly below about 0.91 (no sharp cut-off); inconclusive = no clear call, values can overlap the other calls; inactive = mostly above about 0.92. The list shows a part of the results.
// allowed return values: 1 = active, -1 = inactive

Reference set, count: 3
- compound: "CC1OC1P(=O)(O)O (stereo not drawn)"
  qualitative label: -1
- compound: "C=C1C(C)C2C(Cc3ccccc3)NC(=O)C23OC(=O)/C=C/C(=O)CCCC(C)C/C=C/C3C1O (stereo not drawn)"
  qualitative label: -1
- compound: "C#CCCCCCCCCCCCC(O)CC(O)COC(C)=O (stereo not drawn)"
  qualitative label: -1

**Query** Please indicate how the test categorized C#CCCCCCCCCCCCC(O)CC(O)CO (stereo not drawn) .
**Result** -1

**Query** Please indicate how the test categorized `OC(Cn1cncn1)(Cn1cncn1)c1ccc(F)cc1F` .
**Result** -1

**Query** Please indicate how the test categorized `CN1C(C(=O)Nc2ccccn2)=C(O)c2ccccc2S1(=O)=O` .
**Result** -1

**Query** Please indicate how the test categorized CCCNC1CCc2nc(N)sc2C1 (stereo not drawn) .
**Result** -1

**Query** Please indicate how the test categorized `CC(=O)OCC(COC(C)=O)OC(C)=O` .
**Result** -1

**Query** Please indicate how the test categorized `CCN(CC)C(=O)c1cccc(C)c1` .
**Result** -1

**Query** Please indicate how the test categorized `COc1cc([C@@H]2c3cc4c(c(O)c3C[C@H]3COC(=O)[C@@H]32)OCO4)cc(OC)c1OC` .
**Result** -1

---

- test details: chemical genetic growth profiling, strain panel (AID 1159580)
- condition context: S. cerevisiae deletion strains, growth OD, locus YOR184W, strain ser1, active compounds read low
In all, about 5,500 compounds went through this assay and about 2,000 (36%) were called active. About 18% were inconclusive and are not listed. The list shows a part of the results.
readout type: normalized growth
Form rule: numeric answer, no unit written next to it.

# annotated cases, reported normalized growth shown
- molecule: "CCCCOC(=O)c1ccc(N)cc1"
  normalized growth: 0.817
- molecule: "CCCCOC(=O)c1ccccc1C(=O)OCCCC"
  normalized growth: 0.943
- molecule: "NS(=O)(=O)c1cc2c(cc1Cl)NC(C(Cl)Cl)NS2(=O)=O (stereo not drawn)"
  normalized growth: 1.02
- molecule: "NC(CO)C(=O)NNCc1ccc(O)c(O)c1O (stereo not drawn)"
  normalized growth: 0.993
- molecule: "O=c1cc[nH]c(=S)[nH]1"
  normalized growth: 1.03

In the following, a different molecule is considered.
**Query** Sample `CCN(CC)CCOC(=O)c1ccc(N)cc1` — what was its normalized growth?
**Result** 0.991

---

The following compounds are shown together with reported normalized growth values.
- test details: chemical genetic growth profiling, strain panel (AID 1159580);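 further: tested at 20 µM; growth read once vehicle control cultures reached saturation at 30 °C; 1 = growth at the plate median or of vehicle wells; lower values mean less growth of the strain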
- condition context: S. cerevisiae deletion strains, growth OD, locus YHR129C, strain ARP1, active compounds read low
Out of some 5,500 compounds screened, about 2,000 (36%) were called active. Not shown: some 18% with an inconclusive outcome. Some of the results follow.

- compound: "C#CCCCCCCCCCCCC(=O)CC(O)COC(C)=O (stereo unspecified)"
  recorded measurement: "0.837 (active)"
- compound: "CC(=O)OCC[C@H](C)CCC=C(C)C"
  recorded measurement: "0.999 (inactive)"
- compound: "CC1(C)C2(Cl)C(Cl)C(Cl)C(Cl)(C(Cl)Cl)C1(Cl)C2Cl (stereo unspecified)"
  recorded measurement: "0.984 (inactive)"
- compound: "Cc1cccc(C(=O)O)c1O"
  recorded measurement: "1.01 (inactive)"
- compound: "CC(=O)OCC(OC(C)=O)C(OC(C)=O)C(OC(C)=O)C(OC(C)=O)C(COC(C)=O)OC(C)=O (stereo unspecified)"
  recorded measurement: "1 (inactive)"

**Query** Sample `CC(=O)Oc1c(C)cccc1C(=O)O` — what was its normalized growth?
**Result** 1.01 (inactive)

**Query** Sample CC(=O)OC1CCC2(C)C(=CC=C3C2CCC2(C)C3CCC2C(C)/C=C/C(C)C(C)C)C1(C)C (stereo unspecified) — what was its normalized growth?
**Result** 1.03 (inactive)

**Query** Sample COC(=O)[C@@H]1OC(=O)[C@H]2O[C@@]23[C@@]1(C)CCC1[C@@]2(C)CCC(=O)C(C)(C)C2C[C@@H](OC(C)=O)[C@]13C (stereo partly specified) — what was its normalized growth?
**Result** 1.01 (inactive)

**Query** Sample `Cc1cccc(Nc2ccccc2C(=O)O)c1C` — what was its normalized growth?
**Result** 0.911 (active)

**Query** Sample CC(C)NCC(O)c1cc(O)cc(O)c1 (stereo unspecified) — what was its normalized growth?
**Result** 1 (inactive)

**Query** Sample `CC(C)[C@@H]1CC[C@@H](C)C[C@H]1O` — what was its normalized growth?
**Result** 1.01 (inactive)

---

- test details: chemical genetic growth profiling, strain panel (AID 1159580);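 further: tested at 20 µM; growth read once vehicle control cultures reached saturation at 30 °C; 1 = growth at the plate median or of vehicle wells; lower values mean less growth of the strain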
- condition context: S. cerevisiae deletion strains, growth OD, locus YGL173C, strain kem1, active compounds read low
Among all 5,500 compounds or so, about 2,000 (36%) were called active. About 18% were inconclusive and are not listed. Some of the results follow.
readout type: normalized growth
Form rule: numeric answer, no unit written next to it.

**Query** Sample O=C1[C@H](CCC(O)c2ccc(F)cc2)[C@@H](c2ccc(O)cc2)N1c1ccc(F)cc1 (some centres undefined) — what was its normalized growth?
**Result** 0.979

**Query** Sample CO/N=C(\C(=O)NC1C(=O)N2C(C(=O)O)=C(COC(N)=O)CSC12)c1ccco1 (centres undefined) — what was its normalized growth?
**Result** 0.969

**Query** Sample `COC(=O)C[C@H]1C(C)(C)C(=O)[C@@H]2CC3=C(CC[C@]4(C)C3=CC(=O)O[C@H]4c3ccoc3)[C@@]1(C)C2=O` — what was its normalized growth?
**Result** 0.975

**Query** Sample `CO/N=C(\C(=O)N[C@@H]1C(=O)N2C(C(=O)O)=C(CSc3nc(=O)c(O)nn3C)CS[C@H]12)c1csc(N)n1` — what was its normalized growth?
**Result** 0.975

---

- test details: chemical genetic growth profiling, strain panel (AID 1159580);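 further: tested at 20 µM; growth read once vehicle control cultures reached saturation at 30 °C; 1 = growth at the plate median or of vehicle wells; lower values mean less growth of the strain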
- condition context: S. cerevisiae deletion strains, growth OD, locus YLR357W, strain rsc2, active compounds read low
Screen size: about 5,500 compounds; about 2,000 (36%) were called active. About 18% were inconclusive and are not listed. The list shows a part of the results.
readout type: normalized growth
Form rule: numeric answer, no unit written next to it.

- compound: "Nc1nc2ncc(=O)[nH]c2c(=O)[nH]1"
  readout type: "normalized growth"
  recorded measurement: 0.967
- compound: "CC(C)COCC(CN(Cc1ccccc1)c1ccccc1)N1CCCC1 (stereo not given)"
  readout type: "normalized growth"
  recorded measurement: 1.01

**Query** Sample `CCNC(=O)CC[C@H](N)C(=O)O` — what was its normalized growth?
**Result** 0.962

**Query** Sample `Cc1c(S(=O)(=O)O)oc2c1C(=O)C(=O)c1c-2ccc2c1CCCC2(C)C` — what was its normalized growth?
**Result** 0.905

**Query** Sample `CCN(CC)C(=O)c1cccc(C)c1` — what was its normalized growth?
**Result** 1.09

**Query** Sample `Nc1ccc(N=Nc2ccccc2)c(N)n1` — what was its normalized growth?
**Result** 1.04
